test system: Escherichia coli; experiment: agar plate paper-disc inhibition zone screening; assay type: cell-based; conditions: Dose 3.0 mg/ml, read-out: Inhibition Zone Diameter mm (Dose mg/ml) E. Coli
Endpoint name: zone of inhibition at 3000 µg/mL (mm)
One number for each entry, in mm.

# annotated cases, reported zone of inhibition at 3000 µg/mL shown
INSERT INTO results (structure_smiles_string, endpoint_name, reported_measurement) VALUES
  ('CN(C)CCCn1nc2c3c(c(NCCN)ccc31)C(=O)c1c(O)ccc(O)c1-2', 'zone of inhibition at 3000 µg/mL', 15),
  ('CN(C)CCCn1nc2c3c(c(NCCNCCO)ccc31)C(=O)c1c(O)ccc(O)c1-2', 'zone of inhibition at 3000 µg/mL', 0),
  ('CCN(CC)CCNc1ccc2c3c(nn2CCO)-c2c(O)ccc(O)c2C(=O)c13', 'zone of inhibition at 3000 µg/mL', 0);

Next item in the queue.
Prompt: Item NCCCCCNc1ccc2c3c(nn2CCNCCO)-c2c(O)ccc(O)c2C(=O)c13 : provide zone of inhibition at 3000 µg/mL
Response: 14

###

Give measured response vs control in vivo at 1.56 mg/kg for each item. Keep answers brief.
system: lymphocytic leukemia P388; test: in vivo lymphocytic leukemia P388 test; design: species or system mice; conditions: Mus musculus, P388, ip, 720 h, P388, Dose 1.56 mg/kg intraperitoneally, two single doses four days apart; read-out: T/C × 100 (Percent)
One number for each entry, in %.

Some compounds with known response vs control in vivo at 1.56 mg/kg results, for comparison:
INSERT INTO measurements (compound, reported_measurement) VALUES
  ('NCCn1nc2c3c(c(NCCCNCCO)ccc31)C(=O)c1c(O)ccc(O)c1-2', 181),
  ('CCN(CC)CC(O)Cn1nc2c3c(c(NCCNCCO)ccc31)C(=O)c1c(O)ccc(O)c1-2 (centres unmarked)', 139),
  ('O=C1c2c(O)cc(O)c(O)c2-c2nn(CCNCCO)c3ccc(NCCNCCO)c1c23', 155),
  ('NCCNc1ccc2c3c(nn2CCNCCO)-c2c(O)ccc(O)c2C(=O)c13', 173),
  ('CCN(CC)CCn1nc2c3c(c(NCCN)ccc31)C(=O)c1c(O)ccc(O)c1-2', 172);

Value sought for every listed compound: response vs control in vivo at 1.56 mg/kg.
1. CCN(CC)CCNc1ccc2c3c(nn2CCNCCO)-c2c(O)ccc(O)c2C(=O)c13
2. CCN(CC)CCn1nc2c3c(c(NCCNCCO)ccc31)C(=O)c1ccccc1-2
3. CN(C)CCn1nc2c3c(c(NCCNCCO)ccc31)C(=O)c1c(O)ccc(O)c1-2
4. CN(C)CCNc1ccc2c3c(nn2CCNCCO)-c2c(O)ccc(O)c2C(=O)c13
5. NCCn1nc2c3c(c(NCCNCCO)ccc31)C(=O)c1ccccc1-2
6. NCCn1nc2c3c(c(NCCNCCO)ccc31)C(=O)c1c(O)ccc(O)c1-2

Response:
1. 131
2. 142
3. 163
4. 161
5. 139
6. 153

Your task in this section: give response vs control in vivo at 1.56 mg/kg for each listed record.
1. NCCNc1ccc2c3c(nn2CCNCCO)-c2ccccc2C(=O)c13
2. CCN(CC)CC(O)Cn1nc2c3c(c(NCCN)ccc31)C(=O)c1c(O)ccc(O)c1-2 (centres unmarked)
3. CCN(CC)CCNc1ccc2c3c(nn2CCNCCO)-c2ccccc2C(=O)c13
4. O=C1c2ccccc2-c2nn(CCNCCO)c3ccc(NCCNCCO)c1c23
5. O=C1c2c(O)ccc(O)c2-c2nn(CCNCCO)c3ccc(NCCNCCO)c1c23
6. CCN(CC)CCn1nc2c3c(c(NCCNCCO)ccc31)C(=O)c1c(O)ccc(O)c1-2

Response:
[150, 157, 138, 132, 158, 148]
